tested on: NCI/ADR-RES ovarian; assay: NCI-60 one-dose screen, 48 h (100 = growth as untreated, 0 = no growth, -100 = all killed); conditions: 10 µM
About 83,000 compounds went through this panel and 20% of them were active in at least one assay; those are over-represented in the sample as a whole.
measure.name: growth (%)
Supply the numeric figure in %, leaving out any unit text.

Returns the measured growth for the input compound. Input: COc1ccc(C2C=C(c3ccc(OC)c(OC)c3)N=C3SC=CN32)c(Br)c1 (stereo unspecified)
78.2

Returns the measured growth for the input compound. Input: OC(CNC1CCCC1)Cn1c2ccccc2c2ccccc21 (stereo unspecified)
15.1

Returns the measured growth for the input compound. Input: N#C/C(=C/c1cc([N+](=O)[O-])ccc1Cl)C(N)=O
98.2

Returns the measured growth for the input compound. Input: CN1/C(=C\C(I)C(I)C2=[N+](C)c3ccccc3C2(C)C)C(C)(C)c2ccccc21 (stereo unspecified)
73

Returns the measured growth for the input compound. Input: COc1ccc(-c2nc(-c3nc4ccc(C)cc4[nH]3)c3ccccn23)cc1
22.6

Returns the measured growth for the input compound. Input: N#CC1C=Cc2c(ccc3ccccc23)N1C(=O)c1ccccc1 (stereo unspecified)
-21.8

Returns the measured growth for the input compound. Input: COc1ccc(C(=O)/C=C/c2cc(-c3ccc4c(c3)OCO4)n[nH]2)cc1OC
57.8

Returns the measured growth for the input compound. Input: O=[N+]([O-])c1ccc(-c2nc(-c3ccccc3)c(-c3ccccc3)n2-c2ccccc2)cc1
5.77

Returns the measured growth for the input compound. Input: O=C(O)CCCCSCCCCC(=O)O
109

Returns the measured growth for the input compound. Input: O=[N+]([O-])C1CC2C=CC1C2 (stereo unspecified)
95.6

Returns the measured growth for the input compound. Input: CCCCn1c(=O)[nH]c2c(c1=O)C(c1ccc(Cl)cc1)c1c([nH]c(=O)n(CCCC)c1=O)N2
98.6
